# ASSAY SYSTEM: DNA topoisomerase 2-alpha (Homo sapiens)
# Sequence (P11388 whole entry): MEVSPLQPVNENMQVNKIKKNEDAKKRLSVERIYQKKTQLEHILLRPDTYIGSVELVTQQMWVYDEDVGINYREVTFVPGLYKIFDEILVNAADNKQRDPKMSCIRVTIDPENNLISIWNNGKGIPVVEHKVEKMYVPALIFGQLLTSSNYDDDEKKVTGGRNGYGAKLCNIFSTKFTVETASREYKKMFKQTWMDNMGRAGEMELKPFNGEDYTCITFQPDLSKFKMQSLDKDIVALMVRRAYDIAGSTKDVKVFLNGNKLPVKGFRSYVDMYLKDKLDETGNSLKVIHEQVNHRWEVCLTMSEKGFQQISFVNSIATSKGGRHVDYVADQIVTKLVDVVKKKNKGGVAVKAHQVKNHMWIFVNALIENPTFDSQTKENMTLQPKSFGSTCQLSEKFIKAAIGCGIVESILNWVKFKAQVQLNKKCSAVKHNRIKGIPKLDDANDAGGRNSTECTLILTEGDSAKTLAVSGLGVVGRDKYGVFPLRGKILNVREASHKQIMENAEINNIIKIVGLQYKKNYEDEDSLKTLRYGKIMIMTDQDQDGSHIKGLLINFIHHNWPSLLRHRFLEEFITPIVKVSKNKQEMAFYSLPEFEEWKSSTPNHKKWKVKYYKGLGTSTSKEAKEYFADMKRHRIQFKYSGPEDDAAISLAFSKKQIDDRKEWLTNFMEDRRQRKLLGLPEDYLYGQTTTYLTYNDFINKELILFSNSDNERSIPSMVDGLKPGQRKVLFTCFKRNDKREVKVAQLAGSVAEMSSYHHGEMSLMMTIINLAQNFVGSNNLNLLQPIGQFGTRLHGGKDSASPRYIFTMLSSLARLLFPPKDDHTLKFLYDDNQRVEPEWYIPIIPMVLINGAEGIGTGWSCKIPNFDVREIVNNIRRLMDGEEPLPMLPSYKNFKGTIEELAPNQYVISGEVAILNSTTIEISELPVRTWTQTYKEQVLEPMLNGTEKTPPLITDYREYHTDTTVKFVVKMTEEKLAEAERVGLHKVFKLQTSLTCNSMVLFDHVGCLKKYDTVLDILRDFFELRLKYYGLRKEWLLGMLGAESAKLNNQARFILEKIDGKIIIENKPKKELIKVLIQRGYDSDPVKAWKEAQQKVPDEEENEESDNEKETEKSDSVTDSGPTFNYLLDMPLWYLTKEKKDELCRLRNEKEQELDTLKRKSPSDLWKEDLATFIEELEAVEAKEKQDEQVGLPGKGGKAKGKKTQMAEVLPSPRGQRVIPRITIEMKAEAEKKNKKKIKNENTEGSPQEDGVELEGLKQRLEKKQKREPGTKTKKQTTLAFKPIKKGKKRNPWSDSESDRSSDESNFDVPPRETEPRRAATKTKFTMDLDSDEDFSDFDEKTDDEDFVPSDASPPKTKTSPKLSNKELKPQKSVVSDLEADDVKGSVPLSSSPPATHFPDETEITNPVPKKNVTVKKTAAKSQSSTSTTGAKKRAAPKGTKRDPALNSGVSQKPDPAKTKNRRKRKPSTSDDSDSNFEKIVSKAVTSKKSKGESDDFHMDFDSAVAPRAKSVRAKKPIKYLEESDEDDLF
# EXPERIMENT SUMMARY: Inhibition of purified human topoisomerase 2-mediated relaxation of supercoiled pBR322 DNA at 20 uM incubated for 30 mins by agarose gel electrophoresis
Activity calls are given as the source filed them. The rule behind the calls is not given here.
ATTRIBUTE MEASURED: inhibition

CN(C)CCCn1c(N)c(-c2nc3ccccc3o2)c2nc(C#N)c(C#N)nc21 = Active
CCN(CC)CCCCn1c(-c2c(N)n(C)c3nc(C#N)c(C#N)nc23)nc2ccccc21 = Active
CN(C)CCCCn1c(N)c(-c2nc3ccccc3o2)c2nc(C#N)c(C#N)nc21 = Active

* * *

# Test system: HEK293
# EXPERIMENT SUMMARY: Cytotoxicity against HEK293 cells after 48 hrs by MTT assay
# Type: cell-based
# COND: Homo sapiens, HEK293, 48 h
ATTRIBUTE MEASURED: IC50

Sample answers from the record:
CCN(CC)CCn1c(N)c(-c2nc3cc(Cl)ccc3[nH]2)c2nc(C#N)c(C#N)nc21 = > 50 µM
CN1CCN(CCn2c(N)c(-c3nc4ccccc4[nH]3)c3nc(C#N)c(C#N)nc32)CC1 = 10.9 µM
COc1ccc(CCn2c(N)c(-c3nc4ccccc4[nH]3)c3nc(C#N)c(C#N)nc32)cc1 = > 50 µM

Item under review: CCN(CC)CCCn1c(N)c(-c2nc3cc(Cl)ccc3[nH]2)c2nc(C#N)c(C#N)nc21 . Reported IC50?
8.42 µM

* * *

This listing pairs molecules with measured log10 of IC50.
# Test system: A549
# EXPERIMENT SUMMARY: Antiproliferative activity against human A549 cells after 48 hrs by MTT assay
# Type: functional, cell-based
# COND: A549, 48 h
Heads up, the numbers here are log10 of IC50 in µM units.

CN(C)CCCn1c(N)c(-c2nc3ccccc3n2C)c2nc(C#N)c(C#N)nc21 = 1.07
CN1CCN(CCn2c(N)c(-c3nc4ccccc4[nH]3)c3nc(C#N)c(C#N)nc32)CC1 = 1.61
CN(C)CCCCn1c(N)c(-c2nc3ccccc3[nH]2)c2nc(C#N)c(C#N)nc21 = 0.92
CCN(CC)CCCCn1c(N)c(-c2nc3ccccc3n2C)c2nc(C#N)c(C#N)nc21 = 0.24
CN(C)CCCCn1c(-c2c(N)n(C)c3nc(C#N)c(C#N)nc23)nc2ccccc21 = 1.05

Item under review: N#Cc1nc2c(-c3nc4ccccc4o3)c(N)n(CCCN3CCCCC3)c2nc1C#N . Reported log10 of IC50?
0.94

Item under review: N#Cc1nc2c(-c3nc4ccccc4[nH]3)c(N)n(CCCN3CCCCC3)c2nc1C#N . Reported log10 of IC50?
0.79

Item under review: CCN(CC)CCCCn1c(N)c(-c2nc3cc(Cl)ccc3[nH]2)c2nc(C#N)c(C#N)nc21 . Reported log10 of IC50?
0.36

Item under review: CN(C)CCCn1c(N)c(-c2nc3ccccc3s2)c2nc(C#N)c(C#N)nc21 . Reported log10 of IC50?
0.95

Item under review: CN1CCN(CCCn2c(N)c(-c3nc4ccccc4[nH]3)c3nc(C#N)c(C#N)nc32)CC1 . Reported log10 of IC50?
0.76

Item under review: CN(C)CCCn1c(N)c(-c2nc3ccccc3[nH]2)c2nc(C#N)c(C#N)nc21 . Reported log10 of IC50?
1.02

Item under review: CCN(CC)CCCCn1c(N)c(-c2nc3ccccc3o2)c2nc(C#N)c(C#N)nc21 . Reported log10 of IC50?
0.97

* * *

# EXPERIMENT SUMMARY: Antiproliferative activity against human MDA-MB-201 cells after 48 hrs by MTT assay
# Type: functional, cell-based
ATTRIBUTE MEASURED: IC50 (µM)
Record the value in µM, omitting the unit from your answer.

Sample answers from the record:
CN(C)CCCCn1c(N)c(-c2nc3ccccc3o2)c2nc(C#N)c(C#N)nc21 = 6.13
CN(C)CCn1c(N)c(-c2nc3ccccc3[nH]2)c2nc(C#N)c(C#N)nc21 = 43.5
CN(C)CCCn1c(N)c(-c2nc3ccccc3s2)c2nc(C#N)c(C#N)nc21 = 2.93
N#Cc1nc2c(-c3nc4ccccc4o3)c(N)n(CCCN3CCCCC3)c2nc1C#N = 32.2
CCN(CC)CCn1c(N)c(-c2nc3ccccc3[nH]2)c2nc(C#N)c(C#N)nc21 = 25.4

Item under review: COc1cc([C@@H]2c3cc4c(cc3[C@@H](O[C@@H]3O[C@@H]5CO[C@@H](C)O[C@H]5[C@H](O)[C@H]3O)[C@H]3COC(=O)[C@H]23)OCO4)cc(OC)c1O [ETOPOSIDE] . Reported IC50?
31.3

Item under review: CN(C)CCCn1c(N)c(-c2nc3ccccc3o2)c2nc(C#N)c(C#N)nc21 . Reported IC50?
5.64

* * *

This listing pairs compounds with measured IC50.
# EXPERIMENT SUMMARY: Antiproliferative activity against human MDA-MB-201 cells after 48 hrs by MTT assay
# Assay type: functional, cell-based
Record the value in µM, omitting the unit from your answer.

N#Cc1nc2c(-c3nc4ccccc4[nH]3)c(N)n(CCCN3CCCCC3)c2nc1C#N = 6.23
CN1CCN(CCn2c(N)c(-c3nc4ccccc4[nH]3)c3nc(C#N)c(C#N)nc32)CC1 = 9.11
CN(C)CCCCn1c(N)c(-c2nc3ccccc3n2C)c2nc(C#N)c(C#N)nc21 = 1.79

Moving on to another compound below.
Item under review: CCN(CC)CCCCn1c(N)c(-c2nc3ccccc3n2C)c2nc(C#N)c(C#N)nc21 . Reported IC50?
2.89

* * *

This listing pairs molecules with measured pIC50.
# Tested on: A549
# EXPERIMENT SUMMARY: Antiproliferative activity against human A549 cells after 48 hrs by MTT assay
# Assay type: functional, cell-based
# COND: A549, 48 h
Answer as the number alone; pIC50 is minus log10 of concentration in mol/L.

CCN(CC)CCCCn1c(-c2c(N)n(C)c3nc(C#N)c(C#N)nc23)nc2ccccc21 = 4.88
CN(C)CCCn1c(N)c(-c2nc3ccccc3o2)c2nc(C#N)c(C#N)nc21 = 5.14

Moving on to another molecule below.
Item under review: CN(C)CCCCn1c(N)c(-c2nc3cc(Cl)ccc3[nH]2)c2nc(C#N)c(C#N)nc21 . Reported pIC50?
4.92

* * *

This listing pairs molecules with measured pIC50.
# Tested on: HEK293
# EXPERIMENT SUMMARY: Cytotoxicity against HEK293 cells after 48 hrs by MTT assay
# Type: cell-based
# COND: Homo sapiens, HEK293, 48 h
Answer as the number alone; pIC50 is minus log10 of concentration in mol/L.

Sample answers from the record:
CCN(CC)CCCn1c(N)c(-c2nc3ccccc3[nH]2)c2nc(C#N)c(C#N)nc21 = 5.10
CN(C)CCCn1c(N)c(-c2nc3ccccc3n2C)c2nc(C#N)c(C#N)nc21 = 5.08
CCN(CC)CCCCn1c(N)c(-c2nc3ccccc3[nH]2)c2nc(C#N)c(C#N)nc21 = 5.27
CN(C)CCCn1c(N)c(-c2nc3ccccc3[nH]2)c2nc(C#N)c(C#N)nc21 = 5.08

Moving on to another molecule below.
Which pIC50 is reported with HEK293 for this entry: N#Cc1nc2c(-c3nc4ccccc4o3)c(N)n(CCCN3CCCCC3)c2nc1C#N ?
4.72

* * *

# EXPERIMENT SUMMARY: Antiproliferative activity against human MDA-MB-201 cells after 48 hrs by MTT assay
# Assay type: functional, cell-based
pIC50: −log10 of the molar value.
This listing pairs compounds with measured pIC50.

Cn1c(N)c(-c2nc3ccccc3[nH]2)c2nc(C#N)c(C#N)nc21 = < 4.30
CCCCn1c(N)c(-c2nc3ccccc3[nH]2)c2nc(C#N)c(C#N)nc21 = < 4.30
CCN(CC)CCn1c(N)c(-c2nc3cc(Cl)ccc3[nH]2)c2nc(C#N)c(C#N)nc21 = < 4.30

Item under review: N#Cc1nc2c(-c3nc4ccccc4[nH]3)c(N)n(CCN3CCOCC3)c2nc1C#N . Reported pIC50?
< 4.30

Item under review: N#Cc1nc2c(-c3nc4ccccc4[nH]3)c(N)n(CCCO)c2nc1C#N . Reported pIC50?
< 4.30

* * *

This listing pairs molecules with measured IC50.
# EXPERIMENT SUMMARY: Antiproliferative activity against human MDA-MB-201 cells after 48 hrs by MTT assay
# Format: functional, cell-based
Record the value in µM, omitting the unit from your answer.

Sample answers from the record:
CCN(CC)CCCCn1c(N)c(-c2nc3ccccc3o2)c2nc(C#N)c(C#N)nc21 = 2.71
CCN(CC)CCCn1c(N)c(-c2nc3ccccc3n2C)c2nc(C#N)c(C#N)nc21 = 6.75
CN(C)CCCCn1c(N)c(-c2nc3ccccc3s2)c2nc(C#N)c(C#N)nc21 = 2.74

Moving on to another molecule below.
Item under review: CN(C)CCCCn1c(N)c(-c2nc3cc(Cl)ccc3[nH]2)c2nc(C#N)c(C#N)nc21 . Reported IC50?
3.28
